Catalogue of pKa values
assay: Determination of pKa values; conditions: 50% (v/v) methanol
Form field (numeric): enter value without unit.

>  <sample_smiles>
O=C(O)CCC(=O)Nc1ccc(Br)cn1

>  <result_value>
5.6

$$$$

Value lookup for pKa; key = `O=C(O)CCC(=O)Nc1ccc(I)cn1`
5.8
